system.tested: Nav1.5 (Homo sapiens (Human), UniProt Q14524)
Sequence (Q14524 other isoform, or with tags, fused parts or gaps): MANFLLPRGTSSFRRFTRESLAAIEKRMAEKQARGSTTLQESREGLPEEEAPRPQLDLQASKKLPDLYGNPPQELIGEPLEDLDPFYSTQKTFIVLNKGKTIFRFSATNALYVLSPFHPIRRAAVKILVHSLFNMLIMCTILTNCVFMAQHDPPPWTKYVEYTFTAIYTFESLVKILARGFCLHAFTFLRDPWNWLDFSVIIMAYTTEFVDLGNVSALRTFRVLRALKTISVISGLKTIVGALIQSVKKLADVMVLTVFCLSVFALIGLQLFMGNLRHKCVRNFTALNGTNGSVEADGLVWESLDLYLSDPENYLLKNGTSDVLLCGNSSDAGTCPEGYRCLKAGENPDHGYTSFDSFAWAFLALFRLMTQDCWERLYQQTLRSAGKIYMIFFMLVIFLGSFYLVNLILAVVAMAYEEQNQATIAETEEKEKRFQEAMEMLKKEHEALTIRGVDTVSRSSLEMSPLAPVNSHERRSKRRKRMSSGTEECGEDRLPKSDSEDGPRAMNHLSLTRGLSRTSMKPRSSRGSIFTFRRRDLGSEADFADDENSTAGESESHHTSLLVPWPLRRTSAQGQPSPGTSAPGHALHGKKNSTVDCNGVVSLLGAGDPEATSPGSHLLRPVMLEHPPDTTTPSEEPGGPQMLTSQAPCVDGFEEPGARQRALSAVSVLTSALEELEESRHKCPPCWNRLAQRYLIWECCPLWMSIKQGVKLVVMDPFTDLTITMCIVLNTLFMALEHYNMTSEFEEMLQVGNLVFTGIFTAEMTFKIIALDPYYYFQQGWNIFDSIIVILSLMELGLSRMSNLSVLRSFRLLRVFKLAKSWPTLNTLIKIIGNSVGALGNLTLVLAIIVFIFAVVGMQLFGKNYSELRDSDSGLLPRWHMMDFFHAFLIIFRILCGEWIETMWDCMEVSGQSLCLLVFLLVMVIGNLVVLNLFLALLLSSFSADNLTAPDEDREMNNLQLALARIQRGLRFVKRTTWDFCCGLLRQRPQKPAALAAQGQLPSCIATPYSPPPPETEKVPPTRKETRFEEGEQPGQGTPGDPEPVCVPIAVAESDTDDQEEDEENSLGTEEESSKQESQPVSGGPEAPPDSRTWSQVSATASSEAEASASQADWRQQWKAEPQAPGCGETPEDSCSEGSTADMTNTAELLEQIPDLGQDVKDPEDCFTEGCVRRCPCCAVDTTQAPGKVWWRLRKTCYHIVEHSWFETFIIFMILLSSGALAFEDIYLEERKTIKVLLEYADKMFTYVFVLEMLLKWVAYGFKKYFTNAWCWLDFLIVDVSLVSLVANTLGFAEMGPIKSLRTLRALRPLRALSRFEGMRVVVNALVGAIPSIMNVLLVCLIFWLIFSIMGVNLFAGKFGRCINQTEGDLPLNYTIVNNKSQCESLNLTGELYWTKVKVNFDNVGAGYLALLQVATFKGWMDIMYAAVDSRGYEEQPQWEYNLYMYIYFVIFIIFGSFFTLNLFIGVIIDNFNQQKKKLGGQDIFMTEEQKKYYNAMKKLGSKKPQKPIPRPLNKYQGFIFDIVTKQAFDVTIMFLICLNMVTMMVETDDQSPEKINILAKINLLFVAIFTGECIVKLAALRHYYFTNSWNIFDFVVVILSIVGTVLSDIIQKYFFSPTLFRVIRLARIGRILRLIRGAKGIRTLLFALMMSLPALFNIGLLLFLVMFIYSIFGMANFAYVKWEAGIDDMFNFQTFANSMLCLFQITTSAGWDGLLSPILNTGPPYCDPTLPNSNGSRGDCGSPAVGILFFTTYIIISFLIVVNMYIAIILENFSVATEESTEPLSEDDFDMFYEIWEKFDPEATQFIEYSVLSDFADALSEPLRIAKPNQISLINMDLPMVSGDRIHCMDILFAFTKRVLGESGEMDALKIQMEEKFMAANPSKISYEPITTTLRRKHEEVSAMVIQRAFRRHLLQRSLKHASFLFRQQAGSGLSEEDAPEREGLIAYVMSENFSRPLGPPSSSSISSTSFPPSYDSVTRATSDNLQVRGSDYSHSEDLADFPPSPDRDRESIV
protocol.description: Sodium Influx Assay (Flux), Nav1.5
condition.parameters: read-out: Flux NaV1.5 IC50; sodium influx assay, Trex HEK293 cells, ANG2 dye, inactivated state
Counter-ions that a name gives are not always drawn.
measured.quantity: IC50 (µM)
The figure you give is taken to be in µM; do not add the unit.

For orientation, consider the following solved cases.
- molecule: "O=S(=O)(Nc1cscn1)c1ccc(NCc2c(F)ccc(F)c2CN2CCCC2)n2ccnc12 [Example 44, trifluoroacetic acid salt]"
  reported.result: 8.85
- molecule: "Cc1nc(S(=O)(=O)Nc2cscn2)c(F)cc1NCc1c(F)ccc(F)c1Br [Example 36, trifluoroacetic acid salt]"
  reported.result: 30
- molecule: "O=S(=O)(Nc1cscn1)c1cc(C(F)(F)F)c(NCc2c(F)cccc2CN2CCC2)cn1"
  reported.result: 30
- molecule: "Cc1cc(S(=O)(=O)Nc2ccsn2)ncc1NCc1c(F)cccc1CN1CCC1 [Example 12, trifluoroacetic acid salt]"
  reported.result: 30
- molecule: "Cc1nc(S(=O)(=O)Nc2cscn2)c(F)cc1NCc1c(F)cccc1CN(C)C(C)(C)C"
  reported.result: 30

IC50 for Cc1nc(S(=O)(=O)Nc2cscn2)ccc1NCc1c(F)cccc1CN1CC(C)C1 ?
30

// IC50 lookup, key: Cc1nc(S(=O)(=O)Nc2cccc(F)n2)ccc1NCc1c(F)cccc1CN1CCCC1 [Example 41, trifluoroacetic acid salt]
30

Give the measured IC50 of C[C@H](Nc1ncc(S(=O)(=O)Nc2cscn2)cc1Cl)c1ccccc1F .
20.4

May I ask what IC50 has been recorded for Cc1nc(S(=O)(=O)Nc2ccsn2)ccc1NCc1c(F)cccc1CN(C)C(C)(C)C [Example 19, trifluoroacetic acid salt] ?
30

Requested read-out: IC50. Entry: Cc1nc(S(=O)(=O)Nc2cscn2)ccc1NCc1c(F)cccc1CN(C)C(C)(C)C [Example 6, formic acid salt]
30

For the molecule Cc1cc(S(=O)(=O)Nc2cscn2)cnc1NCc1c(F)cccc1CN(C)C(C)(C)C [Example 13, formic acid salt] , what IC50 is on record?
6.02

Tell me the measured IC50 of Cc1nc(S(=O)(=O)Nc2cscn2)ccc1NCc1c(F)cccc1CN1CCCC1 [Example 30, trifluoroacetic acid salt] , please.
30

Look up IC50 for this molecule: Cc1nc(S(=O)(=O)Nc2cscn2)ccc1NCc1c(F)ccc(F)c1CN(C)C(C)(C)C [Example 21, trifluoroacetic acid salt]
30

Data request, read-out IC50, for Cc1sc(S(=O)(=O)Nc2cccc(F)n2)cc1NCc1c(F)cccc1Br
30

Give the measured IC50 of Cc1nc(S(=O)(=O)Nc2cscn2)ccc1NCc1c(F)cccc1CN1CCC1(C)C [Example 8, trifluoroacetic acid salt] .
30

Would you mind telling me what IC50 value was observed for O=S(=O)(Nc1cscn1)c1ccc(NCc2c(F)cccc2CN2CCC2)nc1 ?
26.5

Entry CN(Cc1cccc(F)c1CNc1ncc(S(=O)(=O)Nc2cscn2)cc1Cl)C(C)(C)C [Example 11, formic acid salt] has what IC50?
8.87
